# STUDY SYSTEM: Carbonic anhydrase 12 (Homo sapiens, UniProt O43570)
# Sequence (O43570 whole entry): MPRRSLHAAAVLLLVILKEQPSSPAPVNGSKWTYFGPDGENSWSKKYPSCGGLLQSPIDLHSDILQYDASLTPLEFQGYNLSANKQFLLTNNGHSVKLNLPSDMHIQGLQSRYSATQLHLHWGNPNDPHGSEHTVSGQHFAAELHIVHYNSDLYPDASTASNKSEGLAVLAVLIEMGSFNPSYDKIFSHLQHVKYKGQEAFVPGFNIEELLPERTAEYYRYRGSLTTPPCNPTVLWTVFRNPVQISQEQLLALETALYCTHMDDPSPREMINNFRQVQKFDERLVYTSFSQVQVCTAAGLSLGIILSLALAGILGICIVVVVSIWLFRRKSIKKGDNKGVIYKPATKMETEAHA
REPORTED ENDPOINT: Ki (nM)
Provide only the numeric value, understood in nM.

-- ask Which Ki value belongs to "O=C1NS(=O)(=O)c2ccccc21" ?
-- reply 650
